glycan array binding signal (z-score) values by entry
Biological target: Gal4S(b1-4)GlcNAc
Assay: glycan array binding signal (z-score within array); higher = stronger binding
Settings: glycan notation: IUPAC condensed, linker removed
This is one part of a sample in which the strongest signals are shown more often than they occur.
Lab note: write the figure by itself, no unit.

Answered examples (2):
# Binder, glycan array binding signal (z-score)
measured = [
    ("Pwp1 (Candida glabrata) (protein) MGSSHHHHHHSSGLVPRGSHMASANPISITNVCQFPDNWARTAGFQATTVRLGLTIASNTYKELLNYPGLFNFATQKATVTQPNFSISGFPFFTGLYGLTVWPINLLVELQGYFVPPESGNYTFTLQGSDDAAILFFANPSTFACGSQNDWPQPREADITVTDTLVPSRTLYLVKGVAYPIRIAYYNGSGDGKLNVSFKDPSGTTHTDWKGYVWQYSNTCSTCTYT", 0.267),
    ("Epa2 (Candida glabrata) (protein) MGSSHHHHHHSSGLVPRGSHMASSKDPTSFPMGCSPQVLKTQPGLAVKLYSYGHPVPGCAYNTYQYPDFPRSGYKKERKLADITGVNGRIDIDLKPNDPCRVLSGNLPSNYNYQNTLTYTNFTMILYGYFQPKVTGYHTFNLEADDLLFMNLGAGNAFDCCRAESTLDNFGNYQSYSIWGTDKATADLTVFLVSGIYYPIRLFYVNRDNNAVLDFSFSTEFNKEIIHDFTSYFFSASDEEQCPGNI", -0.316),
]

**Q:** Form field: reported glycan array binding signal (z-score) of FimA-N2 (Actinomyces oris) (protein) MHHHHHHSSGVDLGTENLYFQSNAWIYDVNVYPKNEAIDVDKTIQAQKLNGYGVGSLIKFPVESTAPTLDAKSFYKYFQLKDTLDERLSEVTATDVSLEGTPLQPTDYKVETKQQTVTVTFTAEGLKKIKAAPGKKVSAVFQGKVTKAGNGAITNRAQVISDTLYAEQPPTPETPPTDPENPPTSDEVISRWGDLSIKKVDTHQQGQTKA
**A:** 3.9
